assay-system: Peroxisome proliferator-activated receptor gamma (Homo sapiens, UniProt P37231)
Sequence (P37231 whole entry, the tested form may be a part): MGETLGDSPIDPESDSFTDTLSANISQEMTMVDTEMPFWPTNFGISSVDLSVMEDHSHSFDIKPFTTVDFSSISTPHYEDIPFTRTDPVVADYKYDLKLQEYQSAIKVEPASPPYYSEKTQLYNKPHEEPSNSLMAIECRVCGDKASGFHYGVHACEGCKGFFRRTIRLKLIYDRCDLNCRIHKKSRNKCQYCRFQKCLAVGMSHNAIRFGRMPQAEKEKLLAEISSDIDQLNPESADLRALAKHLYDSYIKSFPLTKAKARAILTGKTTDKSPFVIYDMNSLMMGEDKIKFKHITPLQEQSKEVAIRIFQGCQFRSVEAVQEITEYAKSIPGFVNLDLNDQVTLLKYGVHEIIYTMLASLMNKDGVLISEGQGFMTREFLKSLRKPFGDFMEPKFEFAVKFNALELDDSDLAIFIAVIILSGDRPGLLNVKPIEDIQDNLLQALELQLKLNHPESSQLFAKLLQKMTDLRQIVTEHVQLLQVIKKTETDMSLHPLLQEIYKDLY
assay-notes: Agonist activity at Gal4-PPARgamma (unknown origin) transfected in HCT-116 cells incubated for 24 hrs by luciferase reporter assay
observation-type: EC50

The molecule `O=C(O)Cn1ccc2cc(OCc3ccccc3)ccc21` , tested on Peroxisome proliferator-activated receptor gamma (Homo sapiens, UniProt P37231), showed EC50 of > 47.4 µM

###

assay-system: Tyrosine-protein phosphatase non-receptor type 1 (Homo sapiens)
assay-notes: Inhibition of Flag-tagged human PTP1B (1 to 298 residues) expressed in Escherichia coli BL21 using FDP as substrate
observation-type: pIC50
The meaning of pIC50 here: minus log10 of the concentration in molar units.

// pIC50 value for Cc1noc(-c2ccc(C(C/C=C/c3ccccc3)(Cc3ccc(C(F)(F)P(=O)(O)O)cc3)n3nnc4ccccc43)cc2)n1 (stereo unspecified) : 6.79

###

assay-system: Tyrosine-protein phosphatase non-receptor type 1 (Homo sapiens, UniProt P18031)
assay-notes: Inhibition of PTP1B (unknown origin) using DiFMUP as substrate incubated for 30 min by fluorescence based microplate reader assay
observation-type: pIC50
The meaning of pIC50 here: minus log10 of the concentration in molar units.

The compound `O=c1c2cc(O)c(O)cc2oc2cc(OCc3cccc(Cl)c3F)cc(O)c12` , tested on Tyrosine-protein phosphatase non-receptor type 1 (Homo sapiens, UniProt P18031), showed pIC50 of 6.22

###

assay-system: Tyrosine-protein phosphatase non-receptor type 1 (Homo sapiens, UniProt P18031)
assay-notes: Inhibition of human PTP1B (1 to 411 residues) expressed in Escherichia coli BL21 (DE3) using GNGDpYMPMSPKS as phosphopeptide substrate incubated for 30 mins by malachite green reagent assay
observation-type: pIC50
The meaning of pIC50 here: minus log10 of the concentration in molar units.

Sample answers from the record:
[[record]]
smiles_representation = "O=C1CN(c2c(O)cc(CC3CCCCC3)cc2F)S(=O)(=O)N1"
observation_type = "pIC50"
number = 7.10

[[record]]
smiles_representation = "CS(=O)(=O)Oc1c(Cl)cccc1Cc1ccc(N2CC(=O)NS2(=O)=O)c(O)c1"
observation_type = "pIC50"
number = 7.10

[[record]]
smiles_representation = "O=C1CN(c2ccc(-c3ccc[nH]3)cc2O)S(=O)(=O)N1"
observation_type = "pIC50"
number = 7.10


As a next step, examine the compound that follows.
The compound `COc1ccc2cc(O)c(N3CC(=O)NS3(=O)=O)cc2c1` , tested on Tyrosine-protein phosphatase non-receptor type 1 (Homo sapiens, UniProt P18031), showed pIC50 of 7.10

###

Organism: Homo sapiens
assay-notes: Selectivity ratio of Ki for PTP1B (unknown origin) to Ki for TCPTP (unknown origin)
observation-type: Ratio Ki
I only need the number, thanks.

[[record]]
compound = "O=C(O)C(=O)Nc1sc2c(c1C(=O)O)CCN(CCc1ccccc1)C2"
observation_type = "Ratio Ki"
number = 2

[[record]]
compound = "COC(=O)c1c(O)cccc1OC/C=C/c1cccc(-c2onc(C(=O)O)c2N)c1"
observation_type = "Ratio Ki"
number = 20


// Ratio Ki value for CCc1cc(CC(NC(C)=O)C(=O)NCCCCOc2cc(Cl)cc(O)c2C(=O)OC)ccc1N(C(=O)C(=O)O)c1ccccc1C(=O)O (stereo not given) : 6

// Ratio Ki value for `COC(=O)c1c(O)cccc1OC/C=C/c1cccc(-c2onc(C(=O)O)c2CO)c1` : 20

// Ratio Ki value for `COC(=O)c1c(O)cccc1OC/C=C/c1ccc(F)c(-c2cc(C(=O)O)no2)c1` : 20

###

# pIC50 values compiled below
assay-system: Aldo-keto reductase family 1 member B1 (Rattus norvegicus)
assay-notes: Inhibition of ALR in Fischer-344 rat lens using D,L-glyceraldehyde as substrate in presence of NADPH measured after 3 mins by spectrophotometric assay
Assay type: tissue-based
The meaning of pIC50 here: minus log10 of the concentration in molar units.

[[record]]
smiles_representation = "O=C(O)Cn1ccc(-c2nc3ccccc3s2)c1"
number = 7.31


As a next step, examine the compound that follows.
The compound `O=C(O)Cn1cc(-c2nc3ccccc3s2)cc1C(=O)c1ccccc1` , tested on Aldo-keto reductase family 1 member B1 (Rattus norvegicus), showed pIC50 of 7.35

###

assay-system: Aldo-keto reductase family 1 member B1 (Homo sapiens, UniProt P15121)
assay-notes: Inhibition of human ALR2 expressed in Escherichia coli BL21 (DE3) assessed as inhibition constant using D,L-glyceraldehyde as substrate in presence of NADPH by Michaelis-Menten analysis
observation-type: Ki (µM)
Express the result in µM but write the number alone.

// Ki value for `N#Cc1ccc(CNC(=O)c2ccc(Cl)cc2OCC(=O)O)cc1[N+](=O)[O-]` : 0.107

###

assay-system: UniProt:P18031
assay-notes: Inhibition of human PTP1B using pNPP as substrate incubated for 30 min by UV-Visible spectrophotometer assay
observation-type: IC50 (nM)
Express the result in nM but write the number alone.

// IC50 value for `C[C@@]12CCC[C@](C)(C(=O)O)[C@H]1CCc1cc(OCC(=O)Oc3ccccc3C(=O)O)ccc12` : 2900

###

# IC50 values compiled below
assay-system: Tyrosine-protein phosphatase non-receptor type 1 (Homo sapiens, UniProt P18031)
assay-notes: Inhibition of human PTP1B (1 to 298 residues) expressed in Escherichia coli using FDP as substrate by microplate reader
Express the result in nM but write the number alone.

[[record]]
compound = "O=P(O)(O)C(F)(F)c1ccc(C[C@](/C=C/c2ccccc2)(c2nc3ccccc3s2)n2nnc3ccccc32)cc1"
unit_name = "nM"
number = 23

[[record]]
compound = "O=P(O)(O)C(F)(F)c1ccc(C[C@@](c2ccccc2)(c2ccc(C(F)(F)P(=O)(O)O)cc2)n2nnc3ccccc32)cc1"
unit_name = "nM"
number = 16

[[record]]
compound = "O=P(O)(O)C(F)(F)c1ccc(C[C@](c2ccc(C(F)(F)P(=O)(O)O)cc2)(c2ccc(F)c(F)c2)n2nnc3ccccc32)cc1"
unit_name = "nM"
number = 13


As a next step, examine the compound that follows.
The compound COC(CC(C)C)c1ccc2ccc(CC(Cc3ccc(C(F)(F)P(=O)(O)O)cc3)(c3ccccc3)n3nnc4ccccc43)c(P(=O)(O)O)c2n1 (centres undefined) , tested on Tyrosine-protein phosphatase non-receptor type 1 (Homo sapiens, UniProt P18031), showed IC50 of 5

###

# IC50 values compiled below
assay-system: Tyrosine-protein phosphatase non-receptor type 1 (Homo sapiens)
Sequence (P18031 whole entry): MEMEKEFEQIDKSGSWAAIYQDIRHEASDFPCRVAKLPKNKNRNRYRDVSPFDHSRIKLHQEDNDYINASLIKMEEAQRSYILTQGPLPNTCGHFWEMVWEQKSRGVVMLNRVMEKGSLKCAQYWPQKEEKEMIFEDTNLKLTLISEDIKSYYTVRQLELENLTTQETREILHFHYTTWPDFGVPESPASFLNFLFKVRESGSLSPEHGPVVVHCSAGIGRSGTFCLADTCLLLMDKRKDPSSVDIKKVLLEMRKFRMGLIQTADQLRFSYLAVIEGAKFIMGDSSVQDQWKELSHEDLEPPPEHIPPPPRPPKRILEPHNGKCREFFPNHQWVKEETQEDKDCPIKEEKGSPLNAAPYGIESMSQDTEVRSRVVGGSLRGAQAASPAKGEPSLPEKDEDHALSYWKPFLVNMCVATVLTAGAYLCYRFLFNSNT
assay-notes: Inhibition of human PTP1B (1 to 321 residues) expressed in Escherichia coli using FDP as substrate
Express the result in nM but write the number alone.

[[record]]
compound = "O=C(c1ccccc1)C(Cc1ccc(C(F)(F)P(=O)(O)O)c(Cl)c1)c1ccccc1 (stereo not drawn)"
observation_type = "IC50"
unit_name = "nM"
number = 6

[[record]]
compound = "CC(C)OC(=O)C(Cc1ccc(C(F)(F)P(=O)(O)O)cc1)(Cc1ccc(C(F)(F)P(=O)(O)O)cc1)C(=O)OC(C)C"
observation_type = "IC50"
unit_name = "nM"
number = 40

[[record]]
compound = "O=C(OCc1ccccc1)C(Cc1ccc(C(F)(F)P(=O)(O)O)cc1)(Cc1ccc(C(F)(F)P(=O)(O)O)cc1)C(=O)OCc1ccccc1"
observation_type = "IC50"
unit_name = "nM"
number = 40


// IC50 value for `O=C(c1ccccc1)C(Cc1ccc(C(F)(F)P(=O)(O)O)cc1)(Cc1ccc(C(F)(F)P(=O)(O)O)cc1)c1ccccc1` : 6

// IC50 value for O=C(c1ccccc1)C(Cc1ccc(C(F)(F)P(=O)(O)O)c(Br)c1)c1ccccc1 (stereo not drawn) : 6

// IC50 value for `COC(=O)C(Cc1ccc(C(F)(F)P(=O)(O)O)cc1)(Cc1ccc(C(F)(F)P(=O)(O)O)cc1)C(=O)OCc1ccccc1` : 40

// IC50 value for CC(C)OC(=O)c1cc(CC(Cc2ccc(C(F)(F)P(=O)(O)O)cc2)(C(=O)c2ccccc2)c2ccccc2)ccc1C(F)(F)P(=O)(O)O (stereo not drawn) : 6

// IC50 value for `O=C(Cc1ccccc1)C(Cc1ccc(C(F)(F)P(=O)(O)O)cc1)(Cc1ccc(C(F)(F)P(=O)(O)O)cc1)C(=O)Cc1ccccc1` : 40
